pKi: −log10 of the molar value.
pKi, Alpha-1B adrenergic receptor (Mesocricetus auratus, UniProt P18841), per-entry values.

Use the examples below as a reference point.
{"Molecule": "CCS(=O)(=O)Nc1cccc(Sc2c[nH]cn2)c1", "Subject of test": "Alpha-1B adrenergic receptor (Mesocricetus auratus, UniProt P18841)", "pKi": "< 5.00"}
{"Molecule": "CCS(=O)(=O)Nc1cccc2c1COC2c1c[nH]cn1 (stereo unspecified)", "Subject of test": "Alpha-1B adrenergic receptor (Mesocricetus auratus, UniProt P18841)", "pKi": "< 5.00"}

Input CCS(=O)(=O)Nc1cccc2c1CCCC2(O)c1c[nH]cn1 (stereo unspecified) . Output pKi: < 5.00

Input COc1ccc(NS(C)(=O)=O)c2c1C(c1c[nH]cn1)CCC2 (stereo unspecified) . Output pKi: < 5.00

----------
In this section, each of the molecules is paired with its reported Selectivity.
target: Alpha adrenergic receptor 1A and 1B (Rattus norvegicus) (UniProt P15823+P43140); assay: Selectivity is ratio of pKi (binding affinity) of alpha-1B receptor to that of alpha-1A receptor.; format: protein assay
Sequence (P15823 whole entry, looked up): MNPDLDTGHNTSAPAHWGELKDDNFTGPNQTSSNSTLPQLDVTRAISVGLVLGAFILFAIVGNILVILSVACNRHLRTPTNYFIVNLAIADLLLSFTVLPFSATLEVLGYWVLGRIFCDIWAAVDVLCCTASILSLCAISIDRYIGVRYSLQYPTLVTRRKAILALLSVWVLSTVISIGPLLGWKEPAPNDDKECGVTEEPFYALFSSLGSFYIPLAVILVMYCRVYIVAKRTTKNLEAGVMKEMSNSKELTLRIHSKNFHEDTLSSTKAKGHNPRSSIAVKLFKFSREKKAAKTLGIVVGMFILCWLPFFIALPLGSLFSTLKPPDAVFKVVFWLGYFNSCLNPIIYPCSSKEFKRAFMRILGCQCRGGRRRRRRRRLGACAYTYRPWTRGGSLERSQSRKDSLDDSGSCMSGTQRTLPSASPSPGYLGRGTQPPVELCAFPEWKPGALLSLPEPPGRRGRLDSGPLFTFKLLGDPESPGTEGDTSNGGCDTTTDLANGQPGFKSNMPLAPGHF
Sequence (P43140 whole entry, looked up): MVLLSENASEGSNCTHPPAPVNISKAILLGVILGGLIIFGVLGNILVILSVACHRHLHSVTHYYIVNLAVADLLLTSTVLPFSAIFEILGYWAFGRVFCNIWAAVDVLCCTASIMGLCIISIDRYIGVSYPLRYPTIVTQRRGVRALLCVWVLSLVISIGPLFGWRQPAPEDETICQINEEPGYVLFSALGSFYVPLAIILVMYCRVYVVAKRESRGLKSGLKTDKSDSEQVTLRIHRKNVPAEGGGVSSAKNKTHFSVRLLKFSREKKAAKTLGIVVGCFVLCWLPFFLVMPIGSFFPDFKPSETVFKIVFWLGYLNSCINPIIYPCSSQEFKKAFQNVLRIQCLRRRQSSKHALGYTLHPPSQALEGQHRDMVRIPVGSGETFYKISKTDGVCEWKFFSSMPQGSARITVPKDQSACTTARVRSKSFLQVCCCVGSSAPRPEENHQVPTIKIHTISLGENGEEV
// no unit string in output, number only

Use the examples below as a reference point.
{"Molecule": "Oc1cccc2c1CCCC2c1c[nH]cn1 (stereo not given)", "Selectivity": 3}
{"Molecule": "CCS(=O)(=O)Nc1cccc(Cc2c[nH]cn2)c1C", "Selectivity": 60}
{"Molecule": "CS(=O)(=O)Nc1cccc2c1CCCC2C1=NCCN1 (stereo not given)", "Selectivity": 20}
{"Molecule": "COC(=O)Nc1cccc2c1CCCC2c1c[nH]cn1 (stereo not given)", "Selectivity": 100}

Note: attention shifts to another entry.
The molecule CCS(=O)(=O)Nc1cccc2c1CCCC2(O)c1c[nH]cn1 (stereo not given) on Alpha adrenergic receptor 1A and 1B (Rattus norvegicus) (UniProt P15823+P43140): Selectivity was 1

----------
Biological target: Alpha-2A adrenergic receptor (Rattus norvegicus)
Sequence (whole entry): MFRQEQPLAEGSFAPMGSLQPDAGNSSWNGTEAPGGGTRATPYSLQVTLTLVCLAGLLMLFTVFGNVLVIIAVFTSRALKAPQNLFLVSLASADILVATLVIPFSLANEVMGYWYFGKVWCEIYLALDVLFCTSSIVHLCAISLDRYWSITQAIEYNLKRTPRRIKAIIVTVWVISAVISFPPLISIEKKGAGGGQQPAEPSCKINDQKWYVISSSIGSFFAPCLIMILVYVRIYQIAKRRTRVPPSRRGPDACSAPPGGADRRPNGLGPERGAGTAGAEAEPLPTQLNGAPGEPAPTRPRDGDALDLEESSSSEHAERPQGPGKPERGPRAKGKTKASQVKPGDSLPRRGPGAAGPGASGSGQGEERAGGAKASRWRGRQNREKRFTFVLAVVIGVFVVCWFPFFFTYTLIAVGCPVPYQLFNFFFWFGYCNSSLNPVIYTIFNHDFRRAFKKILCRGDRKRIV
Assay: Functional agonism to constrict tissue containing alpha-2A adrenergic receptor in rat prostatic vas deferens
Assay type: tissue-based
Parameter measured: pD2
// no unit string in output, number only

Use the examples below as a reference point.
{"Compound": "O=S(=O)(CC(F)(F)F)Nc1cccc2c1CCCC2c1c[nH]cn1 (single isomer, unassigned; (+))", "Subject of test": "Alpha-2A adrenergic receptor (Rattus norvegicus)", "Parameter measured": "pD2", "Value": 6.59}
{"Compound": "CCS(=O)(=O)Nc1cccc2c1CCCC2c1c[nH]cn1 (single isomer, unassigned; (+))", "Subject of test": "Alpha-2A adrenergic receptor (Rattus norvegicus)", "Parameter measured": "pD2", "Value": 5.95}
{"Compound": "CN(c1cccc2c1CCCC2c1c[nH]cn1)S(C)(=O)=O (stereo not given)", "Subject of test": "Alpha-2A adrenergic receptor (Rattus norvegicus)", "Parameter measured": "pD2", "Value": 7.08}
{"Compound": "COc1ccc(OC)c(C(O)CN)c1 (stereo not given)", "Subject of test": "Alpha-2A adrenergic receptor (Rattus norvegicus)", "Parameter measured": "pD2", "Value": 8.23}

Note: attention shifts to another entry.
The compound O=C(Nc1cccc2c1CCCC2c1c[nH]cn1)C(F)(F)F (stereo not given) on Alpha-2A adrenergic receptor (Rattus norvegicus): pD2 was 7.14
